Test system: NCI-H23 lung
protocol summary: NCI tumour cell line growth inhibition, 48 h
List of TGI values.

Solved cases (3 shown):
| sample smiles | TGI |
| --- | --- |
| Cc1nn2c(c1C#N)NNc1c-2sc(=N)nnc1=O | > 100 µM |
| O=c1[nH]c2ccc(CC(=S)N3CCOCC3)cc2o1 | > 100 µM |
| O=C(NCCNCCO)c1ccc(Nc2nc3ccccc3c3occc23)cc1 | 26.4 µM |

# input Name the reported TGI value associated with the compound "CSc1nc(NCc2ccccc2)c2cnn(COCCO)c2n1"
# output > 100 µM

---

Overview of reported TGI across a group of molecules:
Tested on: MDA-N
protocol summary: NCI tumour cell line growth inhibition, 48 h

Illustrative cases are given below, each with its answer.
| molecule | TGI |
| --- | --- |
| COc1ccc(/C=C/c2ccnc3ccccc23)cc1OC | 27 µM |
| C(=N\NC1=NCCN1)/c1ccc2ccccc2c1 | 27.9 µM |
| CCN(C(=O)N[C@H](C(=O)N[C@@H](CSC)C(=O)N[C@@H](C)C(=O)OC)C(C)C)c1ccccc1 | 36.2 µM |

# input For the molecule "C=CCSC(C)=O" , what TGI is on record?
# output > 100 µM

# input Reported TGI for C=C(C)CCC1C=[N+]([O-])OC(C)(C)C1(C)C (stereo unspecified) : what is it?
# output > 100 µM

# input Reported TGI for "CSc1nc(SC)c2c(C)cn(COCCOC(=O)c3ccccc3)c2n1" : what is it?
# output > 100 µM

# input Name the reported TGI value associated with the molecule O=C1CC(c2ccccc2)n2c(nc3ccccc32)N1 (stereo unspecified)
# output > 100 µM

# input Entry "Cc1ccc(S(=O)(=O)N(CCNC(=O)c2cccc(O)c2O)c2cc3c4c(c2)Oc2cccc5c2C4(C)c2c(cccc2O3)O5)cc1" : reported TGI = ?
# output > 100 µM

# input GET /values?readout=TGI&item= CCC(c1ccccc1)c1cc(C(C)(C)C)cc(C(C)(C)C)c1O (stereo unspecified)
# output 30.9 µM
